Provenance of the data: patent US20060235076A1

System: MRSA and MSSA
Assay: Antibacterial activity of gallic acid, various gallates and multivalent phenol derivatives alone (agar plate dilution method, MIC)
Format: cell-based, Staphylococcus aureus
Conditions: Staphylococcus aureus, MRSA #8; read-out: MIC alone
Method: According to the agar plate dilution method defined by Japan Society of Chemotherapy, MIC (Minimum inhibitory concentration) was determined. CAMHA was prepared by adding 50 mg/l of Ca-ion, 25 mg/l of Mg-ion, and 2% of NaCl to Mueller-Hinton II Agar (MHA), and it was used as a medium for use in the measurement of sensitivity. […] MIC for gallic acid, various gallates and multivalent phenol derivatives alone with MRSA and MSSA were determined as described in experiment 2.
readout-type: MIC (µg/mL)
One number for each entry, in µg/mL.

{"columns": ["compound", "unit-info", "MIC"],
 "data": [
  ["CCCOC(=O)c1cc(O)c(O)c(O)c1 [Propyl gallate, n-propyl gallate]", "µg/mL", 125]
]}

Quick batch: MIC for everything below.
1. CCCCOC(=O)c1cc(O)c(O)c(O)c1 [Butyl gallate, n-butyl gallate]
2. CCCCCCOC(=O)c1cc(O)c(O)c(O)c1 [Hexyl gallate, n-hexyl gallate]

[125, 31.3]

###

system: MRSA and MSSA; assay: Antibacterial activity of gallic acid, various gallates and multivalent phenol derivatives alone (agar plate dilution method, MIC); type: cell-based, Staphylococcus aureus; conditions: Staphylococcus aureus, MRSA #21; read-out: MIC alone
Field 'label' (enum: label 1 / label 0). Set to label 1 when MIC is strictly under 60 µg/mL; else label 0.

These solved cases illustrate the format of a correct answer.
{"columns": ["compound", "group-label"],
 "data": [
  ["CCCOC(=O)c1cc(O)c(O)c(O)c1 [Propyl gallate, n-propyl gallate]", "label 0"],
  ["CCCCCCOC(=O)c1cc(O)c(O)c(O)c1 [Hexyl gallate, n-hexyl gallate]", "label 0"],
  ["CCCCCCCOC(=O)c1cc(O)c(O)c(O)c1 [Heptyl gallate, n-heptyl gallate]", "label 1"]
]}

is_below(MIC, 60 µg/mL) for CCCCCOC(=O)c1cc(O)c(O)c(O)c1 [Pentyl gallate, n-pentyl gallate] ? label 0

In the record for CCOC(=O)c1cc(O)c(O)c(O)c1 [Ethyl gallate, ethyl gallate] , is MIC less than 60 µg/mL? label 0

Consider the compound CCCCCCCCOC(=O)c1cc(O)c(O)c(O)c1 [Octyl gallate, n-octyl gallate] . Is its MIC strictly less than 60 µg/mL? label 1

Does the reported MIC of the following compound sit strictly below 60 µg/mL? COC(=O)c1cc(O)c(O)c(O)c1 [Methyl gallate, methyl gallate] label 0

For this compound, is MIC lower than 60 µg/mL? CCCCCCCCCOC(=O)c1cc(O)c(O)c(O)c1 [Nonyl gallate, n-nonyl gallate] label 1

A record lists CCCCOC(=O)c1cc(O)c(O)c(O)c1 [Butyl gallate, n-butyl gallate] . Is its MIC below 60 µg/mL? label 0

Does the reported MIC of the following compound sit strictly below 60 µg/mL? CCCCCCCCCCOC(=O)c1cc(O)c(O)c(O)c1 [Decyl gallate, n-decyl gallate] label 1

Field: below-cutoff. Rule: recorded MIC strictly less than 60 µg/mL. Subject: O=C(O)c1cc(O)c(O)c(O)c1 [Gallic acid, gallic acid, reference compound] label 0

###

Assignment: determine reported MIC for the given compounds.
test system: MRSA and MSSA; assay: Antibacterial activity of gallic acid, various gallates and multivalent phenol derivatives alone (agar plate dilution method, MIC); type: cell-based, Staphylococcus aureus; conditions: Staphylococcus aureus, MRSA #12; compound alone; read-out: MIC
Give bare numbers, in µg/mL.

{"columns": ["compound", "MIC / µg/mL"],
 "data": [
  ["CC(C)CCOC(=O)c1ccc(O)cc1 [Isoamyl 4-hydroxybenzoate]", 62.5]
]}

For each of the compounds below, note its MIC.
1. CCCC(=O)c1cc(O)c(O)cc1O [2′,4′,5′-trihydroxybutyrophenone]
2. CC(C)CCOC(=O)c1cc(O)c(O)c(O)c1 [isoAmyl gallate, Isoamyl gallate]
3. CCCCCCCCCCCOC(=O)c1cc(O)c(O)c(O)c1 [Undecyl gallate, n-undecyl gallate]

1. 125
2. 62.5
3. 31.3
